All figures here come from paper PMC6689975.

- Test system: S. cerevisiae wild-type CVX12-3A
- Construct: CVX12-3A
- testSummary: microbe, parasite or virus in culture
- Set-up: species or system whole yeast cells; micro-culture broth dilution MIC in YES at 30 C, turbidity, complete growth inhibition
- testSettings: Saccharomyces cerevisiae, read-out: MIC
measurementType: MIC

Query :: # query: MIC | item `O=C1OCc2ccccc2/C1=C\c1ccc(C(=O)O)cc1` | system: S. cerevisiae wild-type CVX12-3A
Result :: > 200 µg/mL

Query :: Try the compound O=C1OCc2ccccc2/C1=C\c1ccc([N+](=O)[O-])cc1 [17E]
Result :: 200 µg/mL

Query :: Try the compound O=C1OCc2ccccc2/C1=C\c1cccc(Cl)c1 [28E]
Result :: > 200 µg/mL

Query :: Try the compound COc1cc(/C=C2/C(=O)OCc3ccccc32)ccc1O [30E]
Result :: 150 µg/mL

Query :: Try the compound `O=C1OCc2ccccc2/C1=C\c1ccccc1Cl`
Result :: > 200 µg/mL

Query :: Try the compound `O=C1OCc2ccccc2/C1=C\c1ccccc1`
Result :: > 200 µg/mL

Query :: Try the compound O=C1OCc2ccccc2/C1=C\c1cccc(O)c1 [16E]
Result :: > 200 µg/mL

Query :: Try the compound COc1cc(/C=C2/C(=O)OCc3ccccc32)cc(OC)c1OC [25E]
Result :: > 200 µg/mL

Query :: Try the compound Cc1ccccc1/C=C1/C(=O)OCc2ccccc21 [20E]
Result :: > 200 µg/mL

Query :: Try the compound O=C1OCc2ccccc2/C1=C\c1ccccc1Br [14E]
Result :: > 200 µg/mL

Query :: Try the compound O=C1OCc2ccccc2/C1=C\c1ccc(O)cc1 [29E]
Result :: > 200 µg/mL

Query :: Try the compound O=C1OCc2ccccc2/C1=C\c1cccc([N+](=O)[O-])c1 [24E]
Result :: > 200 µg/mL

Query :: Try the compound `Cn1cccc1/C=C1/C(=O)OCc2ccccc21`
Result :: > 200 µg/mL

Query :: Try the compound `O=C1OCc2ccccc2/C1=C\c1cccnc1`
Result :: 200 µg/mL

Query :: Try the compound O=C1OCc2ccccc2/C1=C/c1cccc([N+](=O)[O-])c1 [24Z]
Result :: > 200 µg/mL

Query :: Try the compound `COc1cccc(/C=C2/C(=O)OCc3ccccc32)c1OC`
Result :: > 200 µg/mL

Query :: Try the compound Cc1cc(C)c(/C=C2/C(=O)OCc3ccccc32)c(C)c1 [18E]
Result :: > 200 µg/mL

* * *

- Tested on: C. albicans wild-type
- testSummary: microbe, parasite or virus in culture
- Parameters: species or system whole yeast cells; macro tube broth dilution MIC in YEPD at 30 C, visual clearness of medium
- testSettings: Candida albicans, 48 h, read-out: MIC
Reported MIC values follow for various compounds
Express your answer in µg/mL, writing the number without its unit.

The examples below pair each entry with its known result.
| compound | systemTested | unitInfo | MIC |
| --- | --- | --- | --- |
| O=C1OCc2ccccc2/C1=C\c1cccc(O)c1 [16E] | C. albicans wild-type | µg/mL | 200 |
| O=C1OCc2ccccc2/C1=C\c1ccc(C(=O)O)cc1 | C. albicans wild-type | µg/mL | 200 |
| O=C1OCc2ccccc2/C1=C\c1cccnc1 | C. albicans wild-type | µg/mL | 100 |

Query compound follows.
Query :: Can you share its MIC? I mean this compound: `Cn1cccc1/C=C1\C(=O)OCc2ccccc21`
Result :: 25

* * *

- Tested on: S. pombe wild-type 972 h-
- Construct: 972 h-
- testSummary: microbe, parasite or virus in culture
- Design: species or system whole yeast cells; micro-culture broth dilution MIC in YES at 30 C, turbidity, complete growth inhibition
- testSettings: Schizosaccharomyces pombe, read-out: MIC
measurementType: MIC (µg/mL)
Express your answer in µg/mL, writing the number without its unit.

Query :: Can you share its MIC? I mean this compound: O=C1OCc2ccccc2/C1=C\c1cccnc1 [3E]
Result :: 200

Query :: Try the compound COc1cc(/C=C2/C(=O)OCc3ccccc32)ccc1O [30E]
Result :: 150

* * *

- Test system: C. albicans wild-type
- testSummary: microbe, parasite or virus in culture
- Parameters: species or system whole yeast cells; micro-culture broth dilution MIC in YES at 30 C, turbidity, complete growth inhibition
- testSettings: Candida albicans, read-out: MIC
measurementType: MIC

| compound | MIC |
| --- | --- |
| O=C1OCc2ccccc2/C1=C\c1ccc([N+](=O)[O-])cc1 [17E] | > 200 µg/mL |
| Cc1ccccc1/C=C1/C(=O)OCc2ccccc21 [20E] | > 200 µg/mL |
| O=C1OCc2ccccc2/C1=C\c1ccc(Cl)cc1 [23E] | > 200 µg/mL |

Query :: Can you share its MIC? I mean this compound: COc1cc(/C=C2/C(=O)OCc3ccccc32)cc(OC)c1OC [25E]
Result :: > 200 µg/mL

Query :: Try the compound COc1cccc(/C=C2/C(=O)OCc3ccccc32)c1 [22E]
Result :: > 200 µg/mL

* * *

- Test system: S. pombe wild-type 972 h-
- Construct: 972 h-
- testSummary: microbe, parasite or virus in culture
- Parameters: species or system whole yeast cells; micro-culture broth dilution MIC in YES at 30 C, turbidity, complete growth inhibition
- testSettings: Schizosaccharomyces pombe, read-out: MIC
- Protocol: Standard YEPD (Yeast Extract, Peptone, Dextrose) ([Sherman, 1990]), YEPD+S (YEPD with 1.2M sorbitol), YES (Yeast Extract, Dextrose and Supplements of Adenine, Histidine, Leucine, Uracil and Lysine) ([Alfa et al., 1993]) and YES+S (YES with 1.2 M sorbitol) ([Ribas et al., 1991]; [Ishiguro et al., 1997]), media were used for determination of MIC values of the tested compounds. […] Micro-culture assays of large numbers of samples were analyzed as described) ([Martins et al., 2011]). […]
measurementType: MIC

| molecule | MIC |
| --- | --- |
| O=C1OCc2ccccc2/C1=C\c1ccc(Cl)cc1 [23E] | > 200 mg/L |

Query :: Can you share its MIC? I mean this molecule: `Cn1cccc1/C=C1/C(=O)OCc2ccccc21`
Result :: > 200 mg/L

Query :: Try the molecule `O=C1OCc2ccccc2/C1=C/c1ccccc1`
Result :: > 200 mg/L
